System: PRKD3;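 note: KINOMEscan kinase panel screen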
Settings: concentration: 1 μM, replicates: in singlicate; n = 1
%Inh by entry:

- Molecule: "COc1ccc(-c2coc3ccc(-c4nnc(SCc5cccc(C#N)c5)o4)cc23)cc1"
  %Inh: "0%"
- Molecule: "Cc1ccc(-c2ccc3c(ccc4sc5c(c43)NC[C@@H](C)N=C5N(C)C)n2)cn1"
  %Inh: "20%"
- Molecule: "COc1ccc(-c2cc3c(C)nc(N)nc3n([C@H]3CC[C@H](OCCO)CC3)c2=O)cn1"
  %Inh: "9%"
- Molecule: "CCS(=O)(=O)c1ccc(OC)c(Nc2ncc(-c3ccc(F)cc3)o2)c1.Cl"
  %Inh: "0%"
- Molecule: "Cn1c(=O)c(F)c(Nc2ccc(I)cc2F)c2c(=O)n(OC[C@H](O)CO)cnc21"
  %Inh: "0%"
- Molecule: "COc1cc2ncn(-c3cc(OCCCc4ccccc4)c(C(N)=O)s3)c2cc1OC"
  %Inh: "0%"
- Molecule: "CCc1nc(-c2cccc(C)c2)c(-c2ccncc2)s1"
  %Inh: "9%"
- Molecule: "COc1cc(Nc2nccc(N3CCC(NC(=O)C4COc5ccccc5O4)C3)n2)cc(OC)c1OC (stereo not drawn)"
  %Inh: "0%"
- Molecule: "Cc1ccccc1COc1cc(-n2cnc3cc(Cl)ccc32)sc1C(N)=O"
  %Inh: "0%"
